Tested on: ABL1-phosphorylated
Particulars: concentration: 1 μM,replicates: in singlicate; n = 1;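 also: KINOMEscan kinase panel screen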
Rule: %Inh below 80% gives label 1, anything at or above gives label 0.

Example entries and their recorded answers appear below.
Cl.c1ccc(Oc2ccc(Nc3ccnc4cc(-c5ccc(CN6CCNCC6)o5)ccc34)cc2)nc1    label 0
O=C(Nc1ccc(Oc2ccc3nc(NC(=O)C4CC4)cn3n2)c(F)c1)c1cccn(-c2ccccc2)c1=O    label 0
CSc1nccc(-c2c(-c3ccc(F)cc3)ncn2CCCN2CCOCC2)n1.Cl    label 1

Continue with the next compound.
Exam item: Is the reported %Inh for O=C(NCC1CC1)c1ccc(-c2cc(C(=O)NC3CC3)ccc2F)cc1 strictly below 80%?
Marked response: label 1

###

%Inh: recorded values
Tested on: FAK
Construct: gene PTK2
Particulars: concentration: 1 μM,replicates: in singlicate; n = 1
Report the figure in % without appending any unit label.

The examples below pair each entry with its known result.
C[C@@H](Oc1cc(-n2cnc3cc(-c4ccncc4)ccc32)sc1C(N)=O)c1ccccc1Cl    0
CCn1c(-c2nonc2N)nc2cncc(CNC3CCNCC3)c21.Cl    0
CCOC(=O)N1CCC(n2cnc(-c3ccc(F)cc3)c2-c2ccnc(N)n2)CC1    0
N#Cc1cccc(C(=O)NC2CCN(c3ccnc(Nc4ccc(F)cc4)n3)C2)c1 (stereo not drawn)    0
C[C@@H]1CCN(C(=O)N2CCCC2)C[C@@H]1N(C)c1ncnc2[nH]ccc12    97.3
NC(=O)c1ccc(-c2cc3ncnc(SCC(=O)O)c3s2)cc1    0
CC(=O)Nc1ccc(-c2cc3ncnc(SCC(=O)O)c3s2)cc1    1
Cc1nnc(-c2ccc3occ(-c4ccc(S(C)=O)cc4)c3n2)o1 (stereo not drawn)    0

Shift focus to the following entry.
Looking up Cn1cc(-c2cccc3c(N)c(C(N)=O)nnc23)cn1 , I see its %Inh listed as 21

###

Tested on: PKN1
Particulars: concentration: 1 μM,replicates: in singlicate; n = 1
Let's look at some compounds and their measured %Inh.
Reply with just the number (in %).

%Inh for CS(=O)(=O)Nc1ccc(-c2ccnc3[nH]ccc23)cc1 [GSK993273] is 21

Recorded %Inh (compound CN1CCN(CCNc2nc3cc(Oc4ccc(NC(=O)Nc5cc(C(F)(F)F)ccc5F)cc4)ccc3[nH]2)CC1.Cl.Cl [GW768504] ): 0

The measured %Inh associated with COc1cc2nccc(Nc3ccc(Oc4ccccc4)cc3)c2cc1OC.Cl [GI261656] reads 0

Entry C[C@@H]1CNc2c(sc3ccc4nc(-c5ccc(O)cc5)ccc4c23)C(=O)N1 — recorded %Inh = 0

%Inh for CN(c1ccccc1CNc1nc(Nc2ccc3c(c2)CC(=O)N3)ncc1C(F)(F)F)S(C)(=O)=O is 85

###

Test system: CDK3
Particulars: concentration: 1 μM,replicates: in singlicate; n = 1
Measure Name: %Inh (%)
Answer in %, number only, no unit symbol.

Sample records with %Inh:
Cc1ccc(C(=O)Nc2ccc(Oc3ccc4nc(NC(=O)C5CC5)cn4c3)c(F)c2)c(=O)n1-c1ccccc1    36
FC(F)(F)c1cc(Br)cc(Nc2nccc(-c3cnn4ncccc34)n2)c1 [GW810578]    73
Cc1cccc(-c2nc(Nc3ccncc3)c3sccc3n2)n1 [GW869641]    0
OCCn1cc(-c2cnc3nnn(Cc4ccc5ncccc5c4)c3n2)cn1    5

Per the reported CDK3 data, Cl.c1ccc(Oc2ccc(Nc3ccnc4cc(-c5ccc(CN6CCNCC6)o5)ccc34)cc2)nc1 [GW567142] has %Inh of 0

Field %Inh (CDK3), entry CC(C)c1nc(-c2cccc(NS(=O)(=O)c3ccccc3)c2)c(-c2ccnc(Nc3ccc4c(c3)CN(C)CC4)n2)s1 [GSK1649598] : 99.6

With CDK3 as the test system, Cc1cccc2c(-c3ccncc3)c(-c3ccc(F)cc3)nn12.Cl [GW461487] showed %Inh of 0

Readout %Inh for COc1ccc(Nc2nccc(N3CCC(NC(=O)c4cccc(C#N)c4)C3)n2)cc1 (centres unmarked) [GSK1379730] , test system CDK3, was 26

###

System: CLK3
Particulars: concentration: 1 μM,replicates: in singlicate; n = 1
Kindly return t if reported %Inh is no lower than 7%; return f if it is lower.

Sample answers from the record:
Cn1cc(-c2cccc3c(N)c(C(N)=O)nnc23)cn1    t
CN(c1ccc2c(c1)nc(NCc1ccc(F)cc1)n2C)c1ccnc(Nc2ccc(CS(C)(=O)=O)cc2)n1.Cl    f
O=C(Nc1ccccc1)c1cccc(Oc2ccc3nccn3n2)c1    f
CSc1nccc(-c2c(-c3ccc(F)cc3)ncn2CCCN2CCOCC2)n1.Cl    f
CCOC(=O)N1CCC(n2cnc(-c3ccc(F)cc3)c2-c2ccnc(N)n2)CC1    f

Exam item: Dear colleague, could you confirm whether CCCC(=O)Nc1n[nH]c2ncccc12 has %Inh at or above 7%?
Marked response: t

Exam item: Tell me whether %Inh is at least 7% here: Cn1ccc2ncnc(Oc3ccc(NC(=O)Nc4cc(C(C)(C)C)on4)c(Cl)c3)c21
Marked response: f

Exam item: Hi, just wondering whether CCNCC(Cc1ccccc1)NC(=O)c1cc(Br)c(-c2ccnc3[nH]ccc23)s1.Cl.Cl (stereo not drawn) shows %Inh of 7% or higher.
Marked response: t

Exam item: decide whether the reported %Inh for COc1cccc(CNC(=O)NC2CCN(c3ccnc(Nc4cc(OC)c(OC)c(OC)c4)n3)C2)c1 (stereo not drawn) is at least 7%.
Marked response: f

Exam item: Given the entry COc1ccc(Nc2nccc(N3CCC(NC(=O)c4cccc(C#N)c4)C3)n2)cc1 (stereo not drawn) , answer whether its %Inh meets or surpasses 7%.
Marked response: f

Exam item: Reported %Inh reaches at least 7% for O=C(Nc1n[nH]c2cc(-c3ccco3)ccc12)C1CC1 ?
Marked response: t

Exam item: Is the recorded value of %Inh equal to or greater than 7% for this compound? OCCn1cc(-c2cnc3nnn(Cc4ccc5ncccc5c4)c3n2)cn1
Marked response: f

Exam item: Record O=C(NOCC1CC1)c1cc(Br)c(F)c(F)c1Nc1ccc(I)cc1Cl ; criterion: %Inh no lower than 7%. Met?
Marked response: f

Exam item: API: above_or_equal(metric=%Inh, cutoff=7%) for item FC(F)(F)c1cc(Br)cc(Nc2nccc(-c3cnn4ncccc34)n2)c1
Marked response: t

Exam item: Quick check, %Inh >= 7%? N#Cc1cccc(C(=O)NC2CCN(c3ccnc(Nc4ccc(F)cc4)n3)C2)c1 (stereo not drawn)
Marked response: f

###

Tested on: MST4
Particulars: concentration: 1 μM,replicates: in singlicate; n = 1
compounds and their reported %Inh
Reply with just the number (in %).

Cn1ccc2ncnc(Oc3ccc(NC(=O)Nc4cccc(C(F)(F)F)c4)c(F)c3)c21    0
c1ccc(Oc2ccc(Nc3ccnc4ccc(-c5ccccn5)cc34)cc2)cc1    0
CCOC(=O)N1CCC(n2cnc(-c3ccc(F)cc3)c2-c2ccnc(N)n2)CC1    0

Then this compound:
Looking up COc1cc(Nc2nccc(N3CCC(NC(=O)c4cccc(C#N)c4)C3)n2)cc(OC)c1OC (stereo not shown) , I found its %Inh recorded as 0

###

Test system: MAPKAPK5
Particulars: concentration: 1 μM,replicates: in singlicate; n = 1
Documented %Inh across a set of compounds
Hi! Could you send only the number? It should be in %, unit omitted.

Study these solved cases before continuing.
Cl.Nc1n[nH]c2cc(-c3ccccn3)ccc12 [GSK2189892]    0
COc1cccc(OC)c1C(=O)Nc1cccc(-c2nn3ccccc3c2-c2ccnc(Nc3cccc(F)c3)n2)c1 [GSK361065]    8
CCOC(=O)N1CCC(n2cnc(-c3ccc(F)cc3)c2-c2ccnc(N)n2)CC1 [SB-219952]    13
Cc1cccc2c(-c3ccncc3)c(-c3ccc(F)cc3)nn12.Cl [GW461487]    0
Cn1ccc2ncnc(Oc3ccc(NC(=O)Nc4cnn(C(C)(C)C)c4)c(Cl)c3)c21    0
COc1cc(Nc2nccc(N3CCC(NC(=O)c4cccc(C#N)c4)C3)n2)cc(OC)c1OC (centres unmarked) [GSK1379751]    0

Memo: Cc1ccc2c(-c3ccnc(Nc4ccc(C(F)(F)F)cc4)n3)cnn2n1 [GW819776] , reported %Inh: 0

Documented %Inh of COC(=O)Nc1nc2cc(Oc3ccc(NC(=O)Nc4cc(C(F)(F)F)ccc4Cl)cc3)ccc2[nH]1.Cl [GW697465] : 0

###

System: HIPK4
Particulars: concentration: 1 μM,replicates: in singlicate; n = 1
Each record's %Inh is compared with lower level = under 5%, middle level = from 5% up to 30%, upper level = 30% and over to give its class.

Sample answers from the record:
CNC(=O)c1ccccc1Nc1nc(Nc2cccc(CS(C)(=O)=O)c2)ncc1C.O=CO [GSK1520489]    upper level
CCCC(=O)Nc1n[nH]c2ncccc12 [SB-601436]    lower level
CC(=O)Nc1ccc(-c2cc3ncnc(SCC(=O)O)c3s2)cc1    upper level
Cn1ccc2ncnc(Oc3ccc(NC(=O)Nc4cc(C(C)(C)C)on4)c(Cl)c3)c21    middle level
CC(=O)Nc1nc2cnc(Nc3cc(NC(=O)c4cccc(CC(C)(C)C#N)c4)ccc3C)nc2s1    middle level

Exam item: # bin label for C[C@@H](Oc1cc(-n2cnc3cc(-c4cnn(C)c4)ccc32)sc1C(N)=O)c1ccccc1Cl [GSK580432]
Marked response: lower level

Exam item: Please let me know in which category the item CN(c1cccc(CNc2nc(Nc3ccc4c(c3)CC(=O)N4)ncc2C(F)(F)F)c1)S(C)(=O)=O belongs.
Marked response: middle level

Exam item: Hello team, could you let me know which band the following molecule falls into: O=C(Nc1n[nH]c2cc(-c3ccco3)ccc12)C1CC1 [SB-737447]
Marked response: middle level
